Below is a list of entries, each paired with its recorded pIC50 value.
assay: Inhibition of Saccharomyces cerevisiae alpha-glucosidase after 10 mins
// pIC50: -log10(molar conc.)

{"structure": "O=C1c2ccccc2C(=O)N1CCCCCCCCCCOc1ccc(Cl)cc1", "pIC50": 5.92}
{"structure": "O=C1c2ccccc2C(=O)N1CCCCCCOc1ccccc1", "pIC50": 4.99}
{"structure": "O=C1c2ccccc2C(=O)N1CCCCCCCCCCOc1ccc([N+](=O)[O-])c(C(F)(F)F)c1", "pIC50": 6.08}
{"structure": "O=C1c2ccccc2C(=O)N1CCCOc1ccc(Cl)c(Cl)c1", "pIC50": 5.12}
{"structure": "Cc1ccc(Cl)cc1OCCCCCCCCCCN1C(=O)c2ccccc2C1=O", "pIC50": 6.04}

Continue with the compound presented below.
Task item: Can you share its pIC50? I mean this compound: O=C1c2ccccc2C(=O)N1CCCCCCCCCCOc1ccc([N+](=O)[O-])cc1[N+](=O)[O-]
Reply: 6.01
